Target: H1047R PIK3CA enzyme (Homo sapiens, UniProt P42336, H1047R)
Sequence (P42336 whole entry H1047R): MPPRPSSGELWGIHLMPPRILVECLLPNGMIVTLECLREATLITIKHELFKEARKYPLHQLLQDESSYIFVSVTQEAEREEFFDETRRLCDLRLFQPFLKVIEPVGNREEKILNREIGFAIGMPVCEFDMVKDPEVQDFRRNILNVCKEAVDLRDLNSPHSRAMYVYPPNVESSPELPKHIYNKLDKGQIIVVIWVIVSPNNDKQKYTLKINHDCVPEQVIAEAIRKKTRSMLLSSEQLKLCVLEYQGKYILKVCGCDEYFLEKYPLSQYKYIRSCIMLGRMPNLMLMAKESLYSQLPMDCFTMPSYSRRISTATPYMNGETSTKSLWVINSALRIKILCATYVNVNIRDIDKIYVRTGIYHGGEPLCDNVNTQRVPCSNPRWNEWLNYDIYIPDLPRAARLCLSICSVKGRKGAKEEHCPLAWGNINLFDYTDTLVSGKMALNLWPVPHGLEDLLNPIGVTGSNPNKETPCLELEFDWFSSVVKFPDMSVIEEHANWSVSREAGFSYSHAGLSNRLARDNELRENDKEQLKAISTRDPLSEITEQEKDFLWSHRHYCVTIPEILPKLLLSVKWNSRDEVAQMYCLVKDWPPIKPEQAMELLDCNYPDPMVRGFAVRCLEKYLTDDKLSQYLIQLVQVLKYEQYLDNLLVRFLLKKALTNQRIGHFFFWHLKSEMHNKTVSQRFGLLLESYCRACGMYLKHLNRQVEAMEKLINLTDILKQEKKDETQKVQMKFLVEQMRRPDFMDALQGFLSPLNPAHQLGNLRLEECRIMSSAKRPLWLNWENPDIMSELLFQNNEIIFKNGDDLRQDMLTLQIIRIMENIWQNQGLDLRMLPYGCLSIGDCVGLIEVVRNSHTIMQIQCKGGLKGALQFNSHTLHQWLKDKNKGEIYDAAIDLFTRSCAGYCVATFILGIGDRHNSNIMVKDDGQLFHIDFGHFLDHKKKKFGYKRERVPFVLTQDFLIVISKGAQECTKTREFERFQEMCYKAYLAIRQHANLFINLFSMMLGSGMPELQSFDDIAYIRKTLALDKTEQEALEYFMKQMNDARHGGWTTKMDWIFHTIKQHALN
Sequence (P27986 whole entry partner): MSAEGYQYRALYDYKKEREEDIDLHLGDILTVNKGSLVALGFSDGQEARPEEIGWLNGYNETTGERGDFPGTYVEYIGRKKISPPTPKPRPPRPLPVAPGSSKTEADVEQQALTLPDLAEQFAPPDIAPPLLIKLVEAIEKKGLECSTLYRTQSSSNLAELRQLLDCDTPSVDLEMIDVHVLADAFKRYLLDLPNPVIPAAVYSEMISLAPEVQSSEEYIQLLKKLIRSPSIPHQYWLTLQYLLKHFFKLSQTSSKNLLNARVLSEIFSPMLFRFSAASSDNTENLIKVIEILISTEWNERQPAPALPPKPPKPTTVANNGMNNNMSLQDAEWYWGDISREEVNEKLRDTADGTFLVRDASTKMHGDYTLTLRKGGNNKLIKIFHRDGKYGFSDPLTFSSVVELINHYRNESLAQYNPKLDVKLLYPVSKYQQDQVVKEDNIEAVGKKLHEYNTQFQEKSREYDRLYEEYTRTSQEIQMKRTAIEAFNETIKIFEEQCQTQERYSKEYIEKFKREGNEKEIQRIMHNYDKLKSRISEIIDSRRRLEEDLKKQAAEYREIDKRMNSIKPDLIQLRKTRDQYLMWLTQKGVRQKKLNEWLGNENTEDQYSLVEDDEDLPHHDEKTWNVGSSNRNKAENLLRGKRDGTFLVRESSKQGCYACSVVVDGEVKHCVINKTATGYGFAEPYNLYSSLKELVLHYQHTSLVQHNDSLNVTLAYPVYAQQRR
Assay: ADP-Glo Biochemical PIK3CA Kinase Assay
pIC50: −log10 of the molar value.
pIC50: recorded values

These solved cases illustrate the format of a correct answer.
1. N#CCc1cc(NC(=O)N2C[C@](O)(C(F)(F)F)c3cc(F)ccc32)c2c(c1)C(=O)N[C@@H]2c1cc(F)ccc1Cl (single isomer, unassigned) = ≥ 7.00
2. Cn1cc(Nc2cc(NC(=O)c3cc(F)cc(C(F)(F)F)c3)c3c(c2)C(=O)NC3c2cc(F)ccc2Cl)cn1 (centres unmarked) = ≥ 7.00
3. O=C(CCc1ccccc1)Nc1cccc2c1C(c1cc(F)ccc1Cl)NC2=O (centres unmarked) = 4.00 to 5.00
4. [2H]C1(c2cc(F)ccc2Cl)NC(=O)c2cc(-c3ccc4ncnn4c3)cc(NC(=O)c3cc(F)cc(C(F)(F)F)c3)c21 (centres unmarked) = ≥ 7.00
5. O=C(Nc1cc(Br)cc2c1C(c1cc(F)ccc1Cl)NC2=O)c1cc(F)c(F)c(Cl)c1 (centres unmarked) = ≥ 7.00
6. Cc1ccccc1C1NC(=O)c2cc(C#N)cc(NC(=O)c3nsc4ccccc34)c21 (centres unmarked) = ≥ 7.00
7. O=C1NC(c2cc(F)ccc2Cl)c2c(NC(=O)N3CCCC(c4ccccc4)C3)cc(Br)cc21 (racemic) = 5.00 to 6.00
8. O=C(Nc1cc(Br)cc2c1C(c1ccccc1Cl)NC2=O)c1cc(F)cc(C(F)(F)F)c1 (centres unmarked) = 6.30 to 7.00

Give the measured pIC50 of N#Cc1ccc2c(c1)CCN2C(=O)Nc1cccc2c1C(c1cc(F)ccc1Cl)NC2=O (centres unmarked) .
4.00 to 5.00

Input CN1CCN(C(=O)Nc2cc(Br)cc3c2[C@H](c2cc(F)ccc2Cl)NC3=O)CC1 (single isomer, unassigned)
4.00 to 5.00

Another compound to check: CNC(=O)c1cc(NC(=O)c2cc(F)cc(C(F)(F)F)c2)c2c(c1)c(=O)[nH]n2-c1cc(F)ccc1Cl
5.00 to 6.00

###

Collected IC50 values appear next to each entry.
Biological target: H1047R PIK3CA enzyme (Homo sapiens, UniProt P42336, H1047R)
Assay: ADP-Glo Biochemical PIK3CA Kinase Assay
Experimental: Compounds to be assayed were plated in 16 doses of 1:2 serial dilutions (20 nL volume each well) on a 1536-well plate, and the plate warmed to room temperature. […] To the well was added 1 μL of 200 μM ATP and 20 μM of diC8-PIP2 in Substrate Assay Buffer (50 mM HEPES pH7.4, 50 mM NaCl, 5 mM DTT and 0.03% CHAPS) to start the reaction, and the plate was shaken for 10 seconds, then spun briefly at 1500 rpm, and then incubated for 60 minutes at room temperature. […]

1. O=C(Nc1cc(-c2ccc(=O)n(C3CC3)c2)nc2c1C(c1cc(F)ccc1Cl)NC2=O)c1cc(F)cc(C(F)(F)F)c1 (stereo not shown) [Compound I-647] = ≤ 0.1 µM
2. Cn1c2c(c(NC(=O)c3cc(F)cc(C(F)(F)F)c3)cc1=O)C(c1cc(F)ccc1Cl)NC2=O (stereo not shown) [Compound I-727] = 10 to 100 µM

State the recorded IC50 for this entry: CS(=O)(Cc1cc(NC(=O)c2cc(F)cc(C(F)(F)F)c2)c2c(c1)C(=O)NC2c1cc(F)ccc1Cl)=NC#N (stereo not shown) [Compound I-1312]
≤ 0.1 µM

Now consider COc1ccccc1C1NC(=O)c2cccc(NC(=O)c3csc4ccccc34)c21 (stereo not shown) [Compound I-18] and answer again.
1 to 10 µM

###

Molecular target: H1047R PIK3CA enzyme (Homo sapiens, UniProt P42336, H1047R)
Assay: ADP-Glo Biochemical PIK3CA Kinase Assay
pIC50: −log10 of the molar value.
// values below are reported pIC50

Take a look at these entries with their results.
1. Cc1ccccc1C1NC(=O)c2cc(CCO)cc(NC(=O)c3csc4ccccc34)c21 (stereo not shown) [Compound I-181] = ≥ 7.00
2. Cc1ncc(-c2cc(NC(=O)c3cc(F)cc(Cl)c3)c3c(c2)C(=O)N[C@H]3c2cc(F)ccc2Cl)cn1 [Compound I-896] = ≥ 7.00
3. O=C1N[C@H](c2cc(F)ccc2Cl)c2c(NC(=O)N3C[C@](O)(C(F)(F)F)c4cc(F)ccc43)cc(C3COC3)cc21 (single isomer, unassigned) [Compound I-2653] = 4.00 to 5.00

What does the data say about its pIC50? Entry: Cc1ccccc1C1NC(=O)c2cccc(NC(=O)c3nnc4ccccn34)c21 (stereo not shown) [Compound I-328]
4.00 to 5.00

Repeat for the following molecule: CC(C)[C@]1(O)CN(C(=O)Nc2cccc3c2[C@@H](c2cc(F)ccc2Cl)NC3=O)c2ccc(F)cc21 (single isomer, unassigned) [Compound I-2455]
5.00 to 6.00

Another: O=C1NC(c2cc(F)ccc2Cl)c2c(NC(=O)C3CCCCO3)cc(-c3ccc4ncnn4c3)cc21 (stereo not shown) [Compound I-1803]
4.00 to 5.00

# iterate: Cn1cc(-c2ccc(C3NC(=O)c4cccc(NC(=O)c5cc(F)cc(C(F)(F)F)c5)c43)c(Cl)c2)cn1 (stereo not shown) [Compound I-425]
4.00 to 5.00

###

Biological target: H1047R PIK3CA enzyme (Homo sapiens, UniProt P42336, H1047R)
Test: ADP-Glo Biochemical PIK3CA Kinase Assay
recordedMetric: IC50

1) CN(C)S(=O)(=O)c1cc(-c2ccc3ncnn3c2)cc2c1C(c1cc(F)ccc1Cl)NC2=O (stereo not drawn) = 10 to 100 µM
2) CNc1cc(NC(=O)N2C[C@](O)(C(F)(F)F)c3cc(F)ccc32)c2c(c1C#N)C(=O)N[C@H]2c1cc(F)ccc1Cl (single isomer, unassigned) = 1 to 10 µM
3) [2H]C1([2H])N(C(=O)Nc2cccc3c2[C@H](c2cc(F)ccc2Cl)NC3=O)c2ccc(F)cc2[C@@]1(O)C(F)(F)F (single isomer, unassigned) = 1 to 10 µM
4) O=C1N[C@@H](c2cc(F)ccc2Cl)c2c(NC(=O)N3C[C@](O)(C(F)(F)F)c4cc(F)ccc43)ccc(-n3cccn3)c21 (single isomer, unassigned) = ≤ 0.1 µM

Can you look up the measured IC50 of CCn1cc(-c2cc(NC(=O)c3cc(F)cc(C(F)(F)F)c3)c3c(n2)C(=O)N[C@H]3c2cc(F)ccc2Cl)ccc1=O for me?
≤ 0.1 µM

Try this compound next: O=C1NC(c2cc(F)ccc2Cl)c2c(NC(=O)N3CC(O)c4cc(Cl)ccc43)cccc21 (mixture of isomers)
1 to 10 µM

###

Biological target: H1047R PIK3CA enzyme (Homo sapiens, UniProt P42336, H1047R)
Experiment: ADP-Glo Biochemical PIK3CA Kinase Assay
Consider the following compounds and their measured IC50 readings.

// below: answered compounds
1) O=C(Nc1cccc2c1C(C1CCC(O)CC1)NC2=O)c1cc(F)cc(C(F)(F)F)c1 (centres unmarked) = 10000 to 100000 nM
2) CC1(C)COC(Nc2cc(NC(=O)c3cc(F)cc(C(F)(F)F)c3)c3c(c2)C(=O)NC3c2cc(F)ccc2Cl)=N1 (centres unmarked) = 100 to 500 nM
3) CCN(C(=O)Nc1cccc2c1C(c1cc(F)ccc1Cl)NC2=O)c1ccc(F)cc1 (centres unmarked) = 10000 to 100000 nM
4) Cn1cc(Nc2cc(NC(=O)c3cc(F)cc(C(F)(F)F)c3)c3c(c2)C(=O)N[C@H]3c2cc(F)ccc2Cl)cn1 (single isomer, unassigned) = ≤ 100 nM
5) O=C(Nc1cc(OC2CC(O)C2)cc2c1C(c1cc(F)ccc1Cl)NC2=O)c1cc(F)cc(C(F)(F)F)c1 (centres unmarked) = 100 to 500 nM

Lookup: IC50 / H1047R PIK3CA enzyme (Homo sapiens, UniProt P42336, H1047R) / N#Cc1ncc(-c2cc(NC(=O)c3cc(F)cc(C(F)(F)F)c3)c3c(c2)C(=O)NC3c2cc(F)ccc2Cl)cn1 (centres unmarked)
≤ 100 nM

###

Target: H1047R PIK3CA enzyme (Homo sapiens, UniProt P42336, H1047R)
Assay: ADP-Glo Biochemical PIK3CA Kinase Assay
Measured IC50 accompanies every entry in the list below.

Use the examples below as a reference point.
1) CS(=O)(=O)Cc1cc(NC(=O)c2cc(F)cc(C(F)(F)F)c2)c2c(c1)C(=O)N[C@@H]2c1cc(F)ccc1Cl [Compound I-619] = 1 to 10 µM
2) O=C1CCC[C@H]([C@H]2NC(=O)c3cccc(NC(=O)c4cc(F)cc(C(F)(F)F)c4)c32)C1 (single isomer, unassigned) [Compound I-2252] = 10 to 100 µM
3) Cn1nc(C(F)F)cc1-c1cc(NC(=O)c2cc(F)cc(C(F)(F)F)c2)c2c(c1)C(=O)NC2c1cc(F)ccc1Cl (centres unmarked) [Compound I-1839] = ≤ 0.1 µM
4) O=C1NC(c2cc(F)ccc2Cl)c2c(NC(=O)N3CCCC(O)C3)cc(-c3ccc4ncnn4c3)cc21 (centres unmarked) [Compound I-1721] = 10 to 100 µM

Pending compound:
Reported IC50 for CN1CCN(c2cc(NC(=O)c3cc(F)cc(C(F)(F)F)c3)c3c(n2)C(=O)NC3c2cc(F)ccc2Cl)CC1 (centres unmarked) [Compound I-291] : what is it?
0.1 to 0.5 µM
